Biological target: human CYP2C19 (Homo sapiens)
Sequence (P33261 whole entry): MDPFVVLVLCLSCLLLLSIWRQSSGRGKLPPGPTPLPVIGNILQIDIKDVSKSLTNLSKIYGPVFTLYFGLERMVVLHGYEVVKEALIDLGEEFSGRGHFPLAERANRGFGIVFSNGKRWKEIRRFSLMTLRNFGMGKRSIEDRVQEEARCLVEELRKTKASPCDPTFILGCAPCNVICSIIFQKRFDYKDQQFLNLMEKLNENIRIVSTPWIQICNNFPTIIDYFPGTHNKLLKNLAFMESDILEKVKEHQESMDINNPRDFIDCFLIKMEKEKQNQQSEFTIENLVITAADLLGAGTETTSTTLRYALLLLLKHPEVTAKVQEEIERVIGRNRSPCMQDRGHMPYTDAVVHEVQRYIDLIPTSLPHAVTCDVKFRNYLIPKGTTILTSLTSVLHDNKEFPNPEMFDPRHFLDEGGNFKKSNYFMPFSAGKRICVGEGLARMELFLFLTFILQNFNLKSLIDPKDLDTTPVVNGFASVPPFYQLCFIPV
Experiment: biochemical
Details: CYP2C19 AC50 (half-maximal activity concentration)
observed_property: AC50

CCCCCCC(C=O)=Cc1ccccc1 ... 25.6 µM
C[Si](Cl)(c1ccccc1)c1ccccc1 ... 2.26 µM
CCOc1ccc(C(C)(C)COCc2cccc(Oc3ccccc3)c2)cc1 ... 16.4 µM
CCOP(=O)(OCC)OC(=CCl)c1ccc(Cl)cc1Cl ... 0.83 µM

Proceeding to the next compound to report its AC50.
# get_value(readout='AC50', item= O=[N+]([O-])c1cc(C(F)(F)F)cc([N+](=O)[O-])c1Cl )
56.7 µM

====

Biological target: human CYP2C9 (Homo sapiens, UniProt P11712)
Sequence (P11712 whole entry): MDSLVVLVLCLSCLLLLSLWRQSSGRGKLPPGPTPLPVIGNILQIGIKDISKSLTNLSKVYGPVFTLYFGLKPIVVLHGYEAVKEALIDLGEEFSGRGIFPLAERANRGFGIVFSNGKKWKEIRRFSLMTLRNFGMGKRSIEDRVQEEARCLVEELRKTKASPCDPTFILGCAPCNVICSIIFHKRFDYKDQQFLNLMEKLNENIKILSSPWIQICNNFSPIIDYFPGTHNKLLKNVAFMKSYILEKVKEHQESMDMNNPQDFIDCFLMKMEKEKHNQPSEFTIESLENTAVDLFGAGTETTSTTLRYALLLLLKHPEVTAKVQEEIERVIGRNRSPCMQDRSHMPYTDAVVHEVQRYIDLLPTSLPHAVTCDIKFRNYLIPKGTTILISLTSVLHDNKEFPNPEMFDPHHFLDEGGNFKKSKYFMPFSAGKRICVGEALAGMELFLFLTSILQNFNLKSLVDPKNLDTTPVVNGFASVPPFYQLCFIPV
Assay: biochemical
Details: CYP2C9 IC50
observed_property: IC50 (µM)
Value expressed in µM; do not type the unit.

Solved entries (count: 2):
O=C1NCN(c2ccccc2)C12CCN(CC1COc3ccccc3O1)CC2 (centres unmarked) [Spiroxatrine] ... 10.8
CC(C)Nc1ccc(Nc2ccccc2)cc1 [N-Isopropyl-N'-phenyl-p-phenylenediamine] ... 0.97

Fill blank: measured IC50 of the compound ClC1=C(Cl)C2(Cl)C3C4CC(C5OC45)C3C1(Cl)C2(Cl)Cl (centres unmarked) [Endrin] is ____.
12.4

// IC50 lookup, key: c1ccc2sc(SN(C3CCCCC3)C3CCCCC3)nc2c1
8.95

Item under review: CCOC(=O)N(C)C(=O)CSP(=S)(OCC)OCC [Mecarbam] . Reported IC50?
0.7

====

Reported pIC50, human CYP2C19 (Homo sapiens).
Keep in mind that pIC50 stands for -log10 of concentration in molar terms.

As a guide, the following entries are already answered.
CCN(CC)CCOc1ccc(Cc2ccccc2)cc1.Cl [Tesmilifene hydrochloride] ... 6.37
c1cc[c]([Bi]([c]2ccccc2)[c]2ccccc2)cc1 [Triphenylbismuth] ... 6.77
CCNc1nc(Cl)nc(NC(C)(C)C)n1 [Terbutylazine] ... 4.51
CC(C)CC(N(C)C)C1(c2ccc(Cl)cc2)CCC1.Cl (centres unmarked) [Sibutramine hydrochloride] ... 5.07
CN1CCN(C2Cc3ccccc3Sc3ccc(Cl)cc32)CC1.O=C(O)/C=C\C(=O)O (centres unmarked) [Octoclothepine maleate] ... 4.94

I have this compound here, O=C1CCCc2c1cc1ccc3cccc4ccc2c1c34 [9,10-Dihydrobenzo[a]pyren-7(8H)-one] , and I need its recorded pIC50.
4.58

Using the record for CC[C@]12CCCN3CCc4c(n(c5ccccc45)C(=O)C1)[C@@H]32 [(-)-Eburnamonine] , report its pIC50.
5.21

====

Target: human CYP2C9 (Homo sapiens)
Assay: biochemical
Conditions: CYP2C9 IC50
Where a name gives a salt, the structure may show the parent alone.
observed_property: IC50 (µM)
Output spec: scalar in µM, unitless text.

CCOP(=S)(OCC)Oc1cc(C)nc(C(C)C)n1 ... 1.99
ClC1=C(Cl)C2(Cl)C3C4C=CC(C4)C3C1(Cl)C2(Cl)Cl (stereo not shown) ... 33.6
CC1=C(C)C(=O)C(CCCCC#CCCCC#CCO)=C(C)C1=O ... 5.22

// lookup IC50 for CCOC(=O)CC(SP(=S)(OC)OC)C(=O)OCC (stereo not shown)
1.78

For the molecule shown here, CCN(CC)CCOC(=O)C(c1ccccc1)C1CCCCC1 (stereo not shown) [Drofenine hydrochloride] , give the reported IC50.
26

Recorded IC50 of CN(Cc1ccc(C(C)(C)C)cc1)Cc1cccc2ccccc12 , please.
16.3

Data request, read-out IC50, for CC1(C)C2(Cl)C(Cl)C(Cl)C(Cl)(C(Cl)Cl)C1(Cl)C2Cl (stereo not shown)
9.89

====

Target: CYP3A4 (Homo sapiens, UniProt P08684)
Sequence (P08684 whole entry): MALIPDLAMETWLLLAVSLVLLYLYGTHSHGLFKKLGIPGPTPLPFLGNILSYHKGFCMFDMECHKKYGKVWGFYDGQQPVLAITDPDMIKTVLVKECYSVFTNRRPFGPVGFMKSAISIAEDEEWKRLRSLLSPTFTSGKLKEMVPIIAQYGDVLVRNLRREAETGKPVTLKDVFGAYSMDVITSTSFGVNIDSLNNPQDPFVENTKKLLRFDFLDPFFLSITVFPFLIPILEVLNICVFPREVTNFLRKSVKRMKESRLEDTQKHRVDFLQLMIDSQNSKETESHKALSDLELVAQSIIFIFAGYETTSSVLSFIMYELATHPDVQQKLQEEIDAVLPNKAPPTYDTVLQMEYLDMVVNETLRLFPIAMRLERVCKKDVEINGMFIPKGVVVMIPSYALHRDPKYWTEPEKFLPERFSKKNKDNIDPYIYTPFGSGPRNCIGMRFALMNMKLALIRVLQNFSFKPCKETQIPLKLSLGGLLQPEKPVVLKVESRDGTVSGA
Assay: biochemical
observed_property: AC50 (µM)
Output spec: scalar in µM, unitless text.

Please review the entries below; each comes with its answer.
O=c1c2ccccc2oc2ccccc12 [Xanthone] ... 14.5
O=C(O)c1cccc(Oc2ccccc2)c1 [3-Phenoxybenzoic acid] ... 35.6
Cc1c(C(=O)NN2CCCCC2)nn(-c2ccc(Cl)cc2Cl)c1-c1ccc(Cl)cc1 [Rimonabant] ... 4.96

Need AC50 of CCCCOC(=O)COc1ccc(Cl)cc1Cl [2,4-D 1-butyl ester] , thanks.
2.69

What does the data say about its AC50? Entry: CCCCOC(=O)CCCCC(=O)OCCCC [Dibutyl hexanedioate]
15.4

What measured AC50 goes with CCOC(=O)Cc1cccc2ccccc12 [Ethyl 1-naphthaleneacetate] ?
27.5

Need AC50 of O=C(O)c1cc(Cl)cc(Cl)c1O [3,5-Dichlorosalicylic acid] , thanks.
37

Please give the measured AC50 for this compound: O=C(Oc1ccccc1)c1ccccc1 [Phenyl benzoate]
58.7

Please give the measured AC50 for this compound: OC1(c2ccc(Cl)c(C(F)(F)F)c2)CCN(CCCC(c2ccc(F)cc2)c2ccc(F)cc2)CC1 [Penfluridol]
2.39

====

Biological target: UniProtKB P33261
Assay: biochemical
Details: CYP2C19 IC50
Structures can show the parent of a compound that is named as a salt.
In plain terms, low IC50, meaning strictly below 7 µM, gives Yes, and everything else gives No.

For this compound, is IC50 lower than 7 µM? CC(Cc1ccccc1)N(C)Cc1ccco1 (centres unmarked)
Yes

IC50 strictly < 7 µM for this compound? CCCCCCCCCCCCN [Dodecylamine hydrochloride]
Yes

====

Reported CYP1A2 Efficacy (in parenthesis) values follow for various compounds
Biological target: human CYP1A2 (Homo sapiens, UniProt P05177)
Sequence (P05177 whole entry): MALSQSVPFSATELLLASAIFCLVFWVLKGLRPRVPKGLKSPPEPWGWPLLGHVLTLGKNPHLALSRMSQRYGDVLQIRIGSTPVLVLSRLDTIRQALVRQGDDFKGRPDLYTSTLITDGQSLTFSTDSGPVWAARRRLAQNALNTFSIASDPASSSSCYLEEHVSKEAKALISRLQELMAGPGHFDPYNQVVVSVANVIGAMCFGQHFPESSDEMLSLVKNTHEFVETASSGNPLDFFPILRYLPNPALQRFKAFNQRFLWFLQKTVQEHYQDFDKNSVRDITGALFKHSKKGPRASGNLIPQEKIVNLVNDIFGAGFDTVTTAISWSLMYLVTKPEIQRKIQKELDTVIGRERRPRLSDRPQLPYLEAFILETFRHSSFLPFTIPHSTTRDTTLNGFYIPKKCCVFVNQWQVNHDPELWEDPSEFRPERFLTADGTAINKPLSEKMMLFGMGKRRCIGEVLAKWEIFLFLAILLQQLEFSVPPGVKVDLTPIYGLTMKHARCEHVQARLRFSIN
Settings: human

Solved entries:
O=[N+]([O-])c1ccc2ccc3cccc4ccc1c2c34 ... 0.27 ± 0.05 (-96 ± 5) %
O=C1c2ccccc2C(=O)c2ccccc21 ... 0.23 ± 0.06 (-96 ± 3) %
Nc1c(Br)cc(Br)c2c1C(=O)c1ccccc1C2=O ... 0.14 ± 0.03 (-99 ± 12) %
Clc1ccc(C(c2ccc(Cl)cc2)C(Cl)(Cl)Cl)cc1 ... 9.36 ± 3.19 (-74 ± 16) %

Entry ClC(Cl)=C(c1ccc(Cl)cc1)c1ccc(Cl)cc1 has what CYP1A2 Efficacy (in parenthesis)?
3.65 ± 1.85 (-100 ± 2) %

Find the recorded CYP1A2 Efficacy (in parenthesis) belonging to c1ccc(-c2ccc(C(c3ccccc3)n3ccnc3)cc2)cc1 (centres unmarked) and report it.
5.3 ± 0.35 (-105 ± 4) %

Endpoint output: CYP1A2 Efficacy (in parenthesis) of O=[N+]([O-])c1c2ccccc2cc2ccccc12 . Value?
0.27 ± 0.04 (-96 ± 5) %

====

Counter-ions that a name gives are not always drawn.
Entries below carry reported CYP1A2 AC50 (half-maximal activity concentration) on UniProt:P05177.

Use the examples below as a reference point.
O=C(O)c1cccc(C(=O)O)c1 ... Inactive
O=C(Cl)c1ccc(F)c(Cl)c1 [3-Chloro-4-fluorobenzoyl chloride] ... Inactive
O=C(O)C(F)(F)C(F)(F)C(F)(F)C(F)(F)C(F)(F)F ... Inactive
O=C(O)C(F)(F)C(F)(F)C(F)(F)C(F)(F)C(F)(F)C(F)(F)F ... Inactive
CCCCCCCCC(CCCCCC)C(=O)O (stereo not shown) ... Inactive
CCOC(=O)CC(CC(=O)OCC)(OC(C)=O)C(=O)OCC [Acetyltriethyl citrate] ... Inconclusive inhibitor
CC(=O)c1ccc(O)cc1 [4-Hydroxyacetophenone] ... Inconclusive inhibitor
CCCCCC[C@@H](CCC)C(=O)O ... Inactive

Data request, read-out CYP1A2 AC50 (half-maximal activity concentration), for N#Cc1cc(Br)c(O)c(Br)c1
Inactive

Which CYP1A2 AC50 (half-maximal activity concentration) is reported for this compound? CCCCCCCCS(=O)(=O)Cl [1-Octanesulfonyl chloride]
Inactive

====

Target: human CYP2C9 (Homo sapiens)
Structures can show the parent of a compound that is named as a salt.
observed_property: CYP2C9 IC50 (half-maximal inhibitory concentration)

Solved entries (count: 10):
CN(C)CCN(Cc1ccccc1)c1ccccn1 [Tripelennamine citrate] ... Inactive
O=C1c2ccccc2C(=O)c2ccccc21 [Anthraquinone] ... Inactive
CC(CCc1ccccc1)NCC(O)c1ccc(O)c(C(N)=O)c1 (stereo not shown) [Labetalol hydrochloride] ... Inactive
CCn1ccnc1CC1COc2ccccc2O1 (stereo not shown) [Imiloxan] ... Inactive
C[N+](C)(CCOc1ccccc1)Cc1cccs1.[I-] ... Inactive
Brc1c2ccccc2c(Br)c2ccccc12 [9,10-Dibromoanthracene] ... Inactive
Cl.OC(CNCC(O)C1CCc2cc(F)ccc2O1)C1CCc2cc(F)ccc2O1 (racemic) [rac Nebivolol hydrochloride] ... Inactive
C=CCOc1cc(Cl)ccc1C(=O)NCCN(CC)CC [Alloclamide] ... Inactive
CNC(C)Cc1ccc2c(c1)OCO2.Cl (stereo not shown) ... Inactive
CCCCN1CCCC[C@H]1C(=O)Nc1c(C)cccc1C [Levobupivacaine hydrochloride] ... Inactive

Reported CYP2C9 IC50 (half-maximal inhibitory concentration) for human CYP2C9 (Homo sapiens), given Nc1c(Br)cc(Br)c2c1C(=O)c1ccccc1C2=O [1-Amino-2,4-dibromoanthraquinone] ?
Inactive

Hello, I am looking for reported CYP2C9 IC50 (half-maximal inhibitory concentration) with human CYP2C9 (Homo sapiens) for CC(C)(C(=O)c1cccnc1)c1cccnc1 [Metyrapone] . Could you help?
Inactive

Under human CYP2C9 (Homo sapiens): CYP2C9 IC50 (half-maximal inhibitory concentration) value of COc1cc(N)c(Cl)cc1C(=O)NC1CCN(Cc2ccccc2)CC1 [Clebopride maleate] ?
Inactive

Which CYP2C9 IC50 (half-maximal inhibitory concentration) is reported with human CYP2C9 (Homo sapiens) for this entry: CC(=C(CCOC(=O)C(C)C)SSC(CCOC(=O)C(C)C)=C(C)N(C=O)Cc1cnc(C)nc1N)N(C=O)Cc1cnc(C)nc1N (stereo in doubt) [Bisibutiamine] ?
Inactive

Query the reported CYP2C9 IC50 (half-maximal inhibitory concentration) for human CYP2C9 (Homo sapiens); item: Brc1c(Br)c(Br)c(Br)c(Br)c1Br [Hexabromobenzene]
Inactive

// map COC(=O)c1cc(Cl)ccc1NS(=O)(=O)C(F)(F)F [Amidoflumet] to recorded CYP2C9 IC50 (half-maximal inhibitory concentration) (system: human CYP2C9 (Homo sapiens))
Inactive

Hi! What's the reported CYP2C9 IC50 (half-maximal inhibitory concentration) for CCc1ccc(C(=O)C(C)CN2CCCCC2)cc1.Cl (stereo not shown) [Eperisone hydrochloride] on human CYP2C9 (Homo sapiens)?
Inactive

Any idea what CYP2C9 IC50 (half-maximal inhibitory concentration) came out for O=C(C(=O)c1ccc(Br)cc1)c1ccc(Br)cc1 [4,4'-Dibromobenzil] on human CYP2C9 (Homo sapiens)?
Inactive
